- Tested on: Streptococcus pyogenes
- assay-info: mouse protection, experimentally-induced infection
- Assay type: in vivo
- condition-parameters: mice infected with Streptococcus pyogenes, two doses
readout: ED50 (mg/kg/2)
// note: answer is a bare numeric in mg/kg/2

{"columns": ["compound", "readout", "unit-symbol", "assay-value"],
 "data": [
  ["CCc1ccc(-c2ccc(CNC3(C)CC(OC4C(Oc5c6cc7cc5Oc5ccc(cc5Cl)C(OC5CC(C)(N)C(O)C(C)O5)C5NC(=O)C(NC(=O)C7NC(=O)C(CC(N)=O)NC(=O)C(NC(=O)C(CC(C)C)NC)C(O)c7ccc(c(Cl)c7)O6)c6ccc(O)c(c6)-c6c(O)cc(O)cc6C(C(=O)O)NC5=O)OC(CO)C(O)C4O)OC(C)C3O)cc2)cc1 (stereo not drawn)", "ED50", "mg/kg/2", 0.058],
  ["CNC(CC(C)C)C(=O)NC1C(=O)NC(CC(N)=O)C(=O)NC2C(=O)NC3C(=O)NC(C(=O)NC(C(=O)O)c4cc(O)cc(O)c4-c4cc3ccc4O)C(OC3CC(C)(N)C(O)C(C)O3)c3ccc(c(Cl)c3)Oc3cc2cc(c3OC2OC(CO)C(O)C(O)C2OC2CC(C)(NCc3cccc(OCC4CCCCC4)c3)C(O)C(C)O2)Oc2ccc(cc2Cl)C1O (stereo not drawn)", "ED50", "mg/kg/2", 0.076],
  ["CNC(CC(C)C)C(=O)NC1C(=O)NC(CC(N)=O)C(=O)NC2C(=O)NC3C(=O)NC(C(=O)NC(C(=O)O)c4cc(O)cc(O)c4-c4cc3ccc4O)C(OC3CC(C)(N)C(O)C(C)O3)c3ccc(c(Cl)c3)Oc3cc2cc(c3OC2OC(CO)C(O)C(O)C2OC2CC(C)(NCc3cccc4c3oc3ccccc34)C(O)C(C)O2)Oc2ccc(cc2Cl)C1O (stereo not drawn)", "ED50", "mg/kg/2", 0.045],
  ["CNC(CC(C)C)C(=O)NC1C(=O)NC(CC(N)=O)C(=O)NC2C(=O)NC3C(=O)NC(C(=O)NC(C(=O)O)c4cc(O)cc(O)c4-c4cc3ccc4O)C(OC3CC(C)(N)C(O)C(C)O3)c3ccc(c(Cl)c3)Oc3cc2cc(c3OC2OC(CO)C(O)C(O)C2OC2CC(C)(NCc3ccc(Oc4ccc([N+](=O)[O-])cc4)cc3)C(O)C(C)O2)Oc2ccc(cc2Cl)C1O (stereo not drawn)", "ED50", "mg/kg/2", 0.054]
]}

Switching to the query record.
Data request: ED50 of CNC(CC(C)C)C(=O)NC1C(=O)NC(CC(N)=O)C(=O)NC2C(=O)NC3C(=O)NC(C(=O)NC(C(=O)O)c4cc(O)cc(O)c4-c4cc3ccc4O)C(OC3CC(C)(N)C(O)C(C)O3)c3ccc(c(Cl)c3)Oc3cc2cc(c3OC2OC(CO)C(O)C(O)C2OC2CC(C)(NCc3ccc(C=Cc4ccccc4)cc3)C(O)C(C)O2)Oc2ccc(cc2Cl)C1O (stereo not drawn) on Streptococcus pyogenes?
Data returned: 0.1

---

- Test system: vancomycin-resistant enterococci
- assay-info: broth micro-dilution, mean geometric MIC
- Format: cell-based, Enterococcus faecium and Enterococcus faecalis
- condition-parameters: enterococci, 24-hour incubation
The entries below come with measured mean geometric MIC, Vancomycin Resistant Strains values attached.
Give the number; µg/mL is assumed, so skip it.

{"columns": ["compound", "assay-value"],
 "data": [
  ["CNC(CC(C)C)C(=O)NC1C(=O)NC(CC(N)=O)C(=O)NC2C(=O)NC3C(=O)NC(C(=O)NC(C(=O)O)c4cc(O)cc(O)c4-c4cc3ccc4O)C(OC3CC(C)(N)C(O)C(C)O3)c3ccc(cc3)Oc3cc2cc(c3OC2OC(CO)C(O)C(O)C2OC2CC(C)(NCc3ccc(Oc4ccccc4)cc3)C(O)C(C)O2)Oc2ccc(cc2)C1O (stereo not shown) [Compound 184]", 27],
  ["CNC(CC(C)C)C(=O)NC1C(=O)NC(CC(N)=O)C(=O)NC2C(=O)NC3C(=O)NC(C(=O)NC(C(=O)O)c4cc(O)cc(O)c4-c4cc3ccc4O)C(OC3CC(C)(N)C(O)C(C)O3)c3ccc(c(Cl)c3)Oc3cc2cc(c3OC2OC(CO)C(O)C(O)C2OC2CC(C)(NCc3ccc(OCc4ccccc4)c(OCc4ccccc4)c3)C(O)C(C)O2)Oc2ccc(cc2Cl)C1O (stereo not shown) [Compound 53]", 0.35]
]}

Data request: Query: mean geometric MIC, Vancomycin Resistant Strains; subject: CNC(CC(C)C)C(=O)NC1C(=O)NC(CC(N)=O)C(=O)NC2C(=O)NC3C(=O)NC(C(=O)NC(C(=O)O)c4cc(O)cc(O)c4-c4cc3ccc4O)C(OC3CC(C)(N)C(O)C(C)O3)c3ccc(c(Cl)c3)Oc3cc2cc(c3OC2OC(CO)C(O)C(O)C2OC2CC(C)(NCc3cccc4c([N+](=O)[O-])cccc34)C(O)C(C)O2)Oc2ccc(cc2Cl)C1O (stereo not shown) [Compound 25]
Data returned: 4.0

Data request: Then this compound: CNC(CC(C)C)C(=O)NC1C(=O)NC(CC(N)=O)C(=O)NC2C(=O)NC3C(=O)NC(C(=O)NC(C(=O)O)c4cc(O)cc(O)c4-c4cc3ccc4O)C(OC3CC(C)(N)C(O)C(C)O3)c3ccc(c(Cl)c3)Oc3cc2cc(c3OC2OC(CO)C(O)C(O)C2OC2CC(C)(NCCCc3ccc(OC)cc3)C(O)C(C)O2)Oc2ccc(cc2Cl)C1O (stereo not shown) [Compound 175]
Data returned: 9.5
